target-desc: hormone sensitive lipase, HSL (Rattus norvegicus (Rat))
Sequence (P15304 301-1068, change not shown): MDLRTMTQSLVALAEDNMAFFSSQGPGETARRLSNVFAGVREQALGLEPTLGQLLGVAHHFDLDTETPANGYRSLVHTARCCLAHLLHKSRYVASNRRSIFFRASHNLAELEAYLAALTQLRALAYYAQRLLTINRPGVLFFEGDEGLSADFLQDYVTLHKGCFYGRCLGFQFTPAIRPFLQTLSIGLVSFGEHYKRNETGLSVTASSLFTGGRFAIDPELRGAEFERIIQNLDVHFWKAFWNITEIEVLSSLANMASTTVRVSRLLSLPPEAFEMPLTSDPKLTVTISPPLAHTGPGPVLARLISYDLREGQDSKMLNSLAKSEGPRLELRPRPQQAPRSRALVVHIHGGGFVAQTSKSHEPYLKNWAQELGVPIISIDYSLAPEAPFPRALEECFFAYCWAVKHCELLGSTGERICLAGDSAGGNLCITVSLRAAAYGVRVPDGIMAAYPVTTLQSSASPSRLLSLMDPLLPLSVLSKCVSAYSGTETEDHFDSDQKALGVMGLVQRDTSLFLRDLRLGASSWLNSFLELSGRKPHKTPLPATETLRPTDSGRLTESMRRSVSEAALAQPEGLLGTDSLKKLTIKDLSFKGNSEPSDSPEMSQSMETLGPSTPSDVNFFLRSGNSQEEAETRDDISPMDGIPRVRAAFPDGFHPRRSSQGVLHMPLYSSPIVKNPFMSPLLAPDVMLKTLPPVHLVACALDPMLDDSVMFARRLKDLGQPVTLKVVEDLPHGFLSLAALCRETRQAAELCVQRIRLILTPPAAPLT
procedure-summary: HSL inhibition assay
Type: biochemical
setup-conditions: partially purified HSL from rat fat cells; [3H]trioleoylglycerol substrate
property-name: IC50 (µM)

CC1CCN(C(=O)Oc2noc3ncccc23)CC1    0.12
CC1CCN(C(=O)Oc2noc3cc(Cl)ccc23)CC1    0.12
O=C(Oc1noc2cc(Cl)ccc12)N1CCC(C(F)(F)F)CC1    0.1
CC1CCN(C(=O)Oc2noc3nc(Cl)ccc23)CC1    0.67
CC1CCN(C(=O)Oc2nsc3ccccc23)CC1    0.1
Cc1ccc2c(OC(=O)N3CCC(C)CC3)noc2n1    0.26
CC1CCN(C(=O)Oc2nsc3ncccc23)CC1    0.1
